Experiment: Cmax in ip dosed Sprague-Dawley rat
Assay type: ADME, organism-based
Details: in vivo
Reported Metric: Cmax (ng/mL)

> print(dat)
                                   molecule  reported.metric  experimental.result
1  COCCN(C)Cc1cc(NC(=O)CCc2ccc3c(c2)C(=O)N(C2CCC(=O)NC2=O)C3)cc(Cl)c1C (stereo unspecified)             Cmax                 4270

====

Assay: Cmax in oral dosed Sprague-Dawley rat
Assay type: ADME, organism-based
Settings: in vivo
Reported Metric: Cmax (ng/mL)

> print(dat)
                                   molecule  unit.symbol  experimental.result
1  COCCN(C)Cc1cc(NC(=O)CCc2ccc3c(c2)C(=O)N(C2CCC(=O)NC2=O)C3)cc(Cl)c1C (stereo unspecified)        ng/mL                  671

====

Assay: AUC (0 to t) in oral dosed Sprague-Dawley rat
Type: ADME, organism-based
Settings: in vivo
Reported Metric: AUC(0-t) (ng·h/mL)

> print(dat)
                                   molecule  experimental.result
1  COCCN(C)Cc1cc(NC(=O)CCc2ccc3c(c2)C(=O)N(C2CCC(=O)NC2=O)C3)cc(Cl)c1C (stereo unspecified)                 1050

====

Overview of reported EC50 across a group of compounds:
Molecular target: Protein cereblon/Eukaryotic peptide chain release factor GTP-binding subunit ERF3A (Homo sapiens, UniProt P15170+Q96SW2)
Sequence (Q96SW2 whole entry): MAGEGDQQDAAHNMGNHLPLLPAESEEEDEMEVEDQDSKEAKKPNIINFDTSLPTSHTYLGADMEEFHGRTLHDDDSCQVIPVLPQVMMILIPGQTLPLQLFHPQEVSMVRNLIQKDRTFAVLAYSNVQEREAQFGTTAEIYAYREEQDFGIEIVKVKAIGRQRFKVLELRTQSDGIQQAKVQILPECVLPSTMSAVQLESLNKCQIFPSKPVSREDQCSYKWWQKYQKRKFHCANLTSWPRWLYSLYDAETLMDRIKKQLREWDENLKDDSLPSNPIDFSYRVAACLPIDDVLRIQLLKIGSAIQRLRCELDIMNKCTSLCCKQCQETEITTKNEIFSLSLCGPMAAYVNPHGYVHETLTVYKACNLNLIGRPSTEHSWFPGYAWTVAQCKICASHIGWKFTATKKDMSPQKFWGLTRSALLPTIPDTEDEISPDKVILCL
Sequence (P15170 whole entry): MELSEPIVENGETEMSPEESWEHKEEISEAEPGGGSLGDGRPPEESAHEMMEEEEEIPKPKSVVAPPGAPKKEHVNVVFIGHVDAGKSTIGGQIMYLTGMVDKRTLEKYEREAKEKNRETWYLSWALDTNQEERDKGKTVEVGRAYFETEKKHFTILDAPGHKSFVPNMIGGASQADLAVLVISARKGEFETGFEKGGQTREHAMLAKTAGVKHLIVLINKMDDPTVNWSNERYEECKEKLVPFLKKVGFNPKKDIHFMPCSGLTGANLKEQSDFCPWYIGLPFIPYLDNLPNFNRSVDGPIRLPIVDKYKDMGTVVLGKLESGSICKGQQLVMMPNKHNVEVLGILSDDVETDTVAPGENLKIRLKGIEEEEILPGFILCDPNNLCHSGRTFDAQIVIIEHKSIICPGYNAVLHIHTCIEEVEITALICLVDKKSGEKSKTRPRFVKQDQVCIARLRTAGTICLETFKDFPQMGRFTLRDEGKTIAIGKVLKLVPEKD
Test: PROTAC activity at CRBN/GSPT1 in human U-937 cells assessed as degradation of GSPT1 measured after 6 hrs by Western blot analysis
Reported Metric: EC50 (nM)

> print(dat)
                                    compound  reported.metric  relation.operator  experimental.result
 1  Cc1c(Cl)cc(NC(=O)CCc2ccc3c(c2)C(=O)N(C2CCC(=O)NC2=O)C3)cc1CN1CCN(C)CC1 (configuration not stated)             EC50                  =                 2200
 2  Cc1c(Cl)cc(NC(=O)CCc2ccc3c(c2)C(=O)N(C2CCC(=O)NC2=O)C3)cc1CN1CC2(COC2)C1 (configuration not stated)             EC50                  =                   86
 3  Cc1cc(NC(=O)C(C)Cc2ccc3c(c2)CN(C2CCC(=O)NC2=O)C3=O)ccc1Cl (configuration not stated)             EC50                  >                10000
 4  Cc1ccc(NC(=O)CC(C)c2ccc3c(c2)C(=O)N(C2CCC(=O)NC2=O)C3)cc1Cl (configuration not stated)             EC50                  >                10000
 5  Cc1ccc(NC(=O)/C=C/c2ccc3c(c2)C(=O)N(C2CCC(=O)NC2=O)C3)cc1Cl (configuration not stated)             EC50                  >                10000
 6  Cc1c(Cl)cc(NC(=O)CCc2ccc3c(c2)C(=O)N(C2CCC(=O)NC2=O)C3)cc1CN1CCN(C2CCOCC2)CC1 (configuration not stated)             EC50                  =                  251
 7  Cc1c(Cl)cc(NC(=O)CCc2ccc3c(c2)C(=O)N(C2CCC(=O)NC2=O)C3)cc1CN1CCN(C2COC2)CC1 (configuration not stated)             EC50                  =                  220
 8  Cc1c(Cl)cc(NC(=O)CCc2ccc3c(c2)C(=O)N(C2CCC(=O)NC2=O)C3)cc1CN1CCC(N2CCOCC2)CC1 (configuration not stated)             EC50                  =                  176
 9  COCCN(C)Cc1cc(NC(=O)CCc2ccc3c(c2)C(=O)N(C2CCC(=O)NC2=O)C3)cc(Cl)c1C (configuration not stated)             EC50                  =                   35
10  Cc1cc(NC(=O)CCc2ccc3c(c2)C(=O)N(C2CCC(=O)NC2=O)C3)ccc1Cl (configuration not stated)             EC50                  =                  143
11  Cc1c(Cl)cc(NC(=O)CCc2ccc3c(c2)C(=O)N(C2CCC(=O)NC2=O)C3)cc1CN1CCOCC1 (configuration not stated)             EC50                  =                   48
12  Cc1c(Cl)cc(NC(=O)CCc2ccc3c(c2)C(=O)N(C2CCC(=O)NC2=O)C3)cc1CN1CC(N2CCOCC2)C1 (configuration not stated)             EC50                  =                  208
13  Cc1ccc(NC(=O)COc2ccc3c(c2)C(=O)N(C2CCC(=O)NC2=O)C3)cc1Cl (configuration not stated)             EC50                  >                10000
14  Cc1ccc(NC(=O)CNc2ccc3c(c2)C(=O)N(C2CCC(=O)NC2=O)C3)cc1Cl (configuration not stated)             EC50                  >                10000
15  Cc1ccc(NC(=O)CCc2ccc3c(c2)C(=O)N(C2CCC(=O)NC2=O)C3)cc1Cl (configuration not stated)             EC50                  =                   18
16  Cc1ccc(NC(=O)CCc2ccc3c(c2)C(=O)N(C2CCC(=O)NC2=O)C3=O)cc1Cl (configuration not stated)             EC50                  =                  447
17  Cc1ccc(NC(=O)/C=C/c2cccc3c2CN(C2CCC(=O)NC2=O)C3=O)cc1Cl (configuration not stated)             EC50                  =                 3060

The values you see were collected from ChEMBL document CHEMBL5620419.
